Target: human 5-HT1A receptor (Homo sapiens (Human), UniProt P08908)
Sequence (P08908 whole entry): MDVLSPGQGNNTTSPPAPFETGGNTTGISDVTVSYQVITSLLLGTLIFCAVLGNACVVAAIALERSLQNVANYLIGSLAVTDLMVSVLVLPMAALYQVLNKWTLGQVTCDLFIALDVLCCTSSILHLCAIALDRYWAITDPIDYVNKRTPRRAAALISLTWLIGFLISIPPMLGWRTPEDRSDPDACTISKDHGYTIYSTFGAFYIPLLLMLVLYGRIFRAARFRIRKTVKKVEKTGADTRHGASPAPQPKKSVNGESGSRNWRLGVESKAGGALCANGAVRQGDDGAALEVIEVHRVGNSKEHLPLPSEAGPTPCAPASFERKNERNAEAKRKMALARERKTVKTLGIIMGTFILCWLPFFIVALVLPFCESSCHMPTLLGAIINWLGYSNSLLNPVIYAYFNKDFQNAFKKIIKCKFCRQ
Test: Inhibition of [3H]-8-OH-DPAT binding in membranes from CHO-h5-HT1A cells
Conditions: 5 nM [3H]-8-OH-DPAT, read-out: Binding affinity value (Ki)

Compound	Ki / nM
Cn1c(=O)cnn(CCCCN2CCN(c3cccc(I)n3)CC2)c1=O	5.5
[3H]COc1ccccc1N1CCN(CCCCn2ncc(=O)n(C)c2=O)CC1 [drawing 34]	0.15
Cn1c(=O)cnn(CCCCN2CCN(c3ccccc3Br)CC2)c1=O	6
Cn1c(=O)cnn(CCCCN2CCN(c3cccc(Br)n3)CC2)c1=O	4
